Tested on: ACHN renal
Assay: NCI tumour cell line growth inhibition, 48 h
Catalogue of molecules with associated TGI

CC(C)(O)Cn1c(=O)c(Oc2ccc(F)cc2F)cc2cnc(NC3CCOCC3)nc21: > 25 µM
CCOC(=O)c1cc2c(n1Cc1cccc(OC)c1)-c1oncc1CC2: > 100 µM
C=C1C(=O)O[C@@H]2[C@@H]3O[C@@](C)(CC/C=C(\C)CCC[C@@H]2C)[C@H](O)C[C@@H]13: 3.11 µM
O=C1CCC/C=C\C[C@H]2C=C(Cl)C(=O)/C2=C/C[C@H](CCCCC(F)(F)F)OC(=O)CCC/C=C\C[C@H]2C=C(Cl)C(=O)/C2=C/C[C@H](CCCCC(F)(F)F)O1: 1.02 µM
Nc1nc2nc3c(nc2c(=O)[nH]1)CN(c1ccc(C(=O)O)cc1)C3=O: > 100 µM
COc1ccc(CN(O)C2C(CO)OC(n3cc(I)c(=O)[nH]c3=O)C2O)cc1 (stereo not drawn): > 100 µM
O=C1NN=C(c2ccc(Cl)cc2)CC1C1C(=O)N(c2ccccc2)N=C1c1ccccc1 (stereo not drawn): > 100 µM

Next item in the queue.
[ask] Request - read-out TGI | tested on ACHN renal | molecule C#Cc1cccc(NC(=O)Nc2ccccc2NC(=O)CCl)c1
[reply] 30.6 µM

---

Test system: SF-295 CNS
Assay: NCI tumour cell line growth inhibition, 48 h
Recorded Metric: TGI

[ask] So what's the measured TGI for this one? C#Cc1cccc(NC(=O)Nc2ccccc2NC(=O)CCl)c1
[reply] > 82.5 µM

[ask] What measured TGI goes with CC(C)CC(=O)NC(Nc1ccc(S(=O)(=O)Nc2ncccn2)cc1)(C(F)(F)F)C(F)(F)F ?
[reply] > 100 µM

[ask] Quick check: TGI of COC(=O)C1Cc2c([nH]c3ccccc23)[C@H](CC(C)C)N1 (stereo partly drawn) ?
[reply] > 100 µM

---

Test system: OVCAR-4 ovarian
Assay: NCI tumour cell line growth inhibition, 48 h
Recorded Metric: TGI

Previously resolved entries follow.
COc1cc[c]([Hg][Cl])cc1: 11.5 µM
O=P(O)(O)OC1C(OP(=O)(O)O)C(OP(=O)(O)O)C(OP(=O)(O)O)C(OP(=O)(O)O)C1OP(=O)(O)O (configuration not stated): > 2000 µM
Nn1c(Cc2ccc(Cl)cc2)n[nH]c1=O: > 100 µM
CCCCc1ccc2nc(NC(=O)OC)[nH]c2c1: > 69.2 µM
COCn1c2ccc(OC(C)=O)cc2c2c(=O)oc(C)nc21: > 100 µM
Cn1cc(-c2ccc3cc(-c4ccc(CC(=O)Nc5cc(C(C)(C)C)nn5C)cc4)cnc3c2)cn1: > 100 µM
CSC1=Nc2ccccc2-c2nc(-c3ccccc3)cc(-c3ccccc3)c2C1: > 100 µM
COc1cc2c(cc1OCCCC(=O)Nc1cc(C(=O)Nc3cc(C(=O)Nc4cc(C(=O)NCCCN(C)C)n(C)c4)n(C)c3)n(C)c1)N=C[C@@H]1CCCN1C2=O: 3.15 µM

[ask] Given the compound COc1cc(-c2cc(-c3ccc(N(C)C)cc3)nc(N3CCC(O)CC3)c2C#N)cc(OC)c1OC , what is its reported TGI?
[reply] > 100 µM

[ask] Quick one: TGI for COc1ccc2oc(S(=O)(=O)N3CC(CCl)c4ccc([N+](=O)[O-])cc43)cc2c1 (configuration not stated) ?
[reply] > 100 µM

---

System: OVCAR-5 ovarian
Experiment: NCI tumour cell line growth inhibition, 48 h
The entries below are paired with their reported TGI.
Answer format: numeric, µM implied, no suffix.

O=c1c(Cl)nsnc1Cl: 38.6

[ask] Please look up its TGI: COc1cc([C@@H]2c3cc4c(cc3[C@H](OC3OC5COC(c6ccccc6)OC5C(O)C3O)[C@H]3COC(=O)[C@H]23)OCO4)cc(OC)c1OC (stereo not given in full)
[reply] 22.5

---

Test system: HCC-2998 colon
Test: NCI tumour cell line growth inhibition, 48 h
Reported TGI is given for each of the following compounds.

Field: example entries. Status: answers known.
N/C(=N\N=C\c1ccc2c(c1)OCO2)NO: > 100 µM
O=[N+]([O-])C(/C(Cl)=C(/Cl)N1CCOCC1)=C1\NCCO1: > 100 µM

[ask] Sample O=c1c2ccccc2oc2c1ccc1ncccc12 — what was its TGI?
[reply] > 100 µM

---

Below, each of the compounds is paired with its reported TGI value.
System: MDA-MB-231 breast
Test: NCI tumour cell line growth inhibition, 48 h

The following compounds have reported results that may help.
COc1c2occc2c(OC)c2c(=O)c(S(=O)(=O)NC(=O)Nc3ccc(Cl)cc3)coc12: > 10 µM
Cc1cccc2c1C(=O)C1(Cc3ccccc3C1=O)C2 (centres undefined): > 100 µM
CCCC1NC(C#N)(C#N)C(CCC)NC1(C#N)C#N (centres undefined): > 89.7 µM

Turning now to a further record.
[ask] What does the record list as TGI for Cc1cc(S(=O)(=O)Nc2nc3ccsc3c(=O)n2N)c(S)cc1Cl ?
[reply] > 100 µM

---

Measured TGI by item
Tested on: MALME-3M melanoma
Assay: NCI tumour cell line growth inhibition, 48 h

See these solved cases before continuing.
CC(C)Oc1cc(OCC(=O)O)cc(C(=O)N(CCC(N)=O)C(=O)Nc2ccc(C(=O)O)cc2OC(C)C)c1: > 100 µM
Cc1cc(S(=O)(=O)Nc2nc3ccsc3c(=O)n2N)c(S)cc1Cl: > 100 µM

Alright, here's another compound for you.
[ask] Give the measured TGI of Cc1c(-c2ccccc2)c(C#N)c2nnn(-c3ccccc3)c(=O)n12 .
[reply] > 100 µM

---

Test system: NCI-H460 lung
Experiment: NCI tumour cell line growth inhibition, 48 h
Recorded Metric: TGI

Solved entries (count: 2):
CN(C)C1(C#N)CCC2(CC1)OCCO2: > 100 µM
CN(C(=O)C12C3C4(C(=O)O)C1(C(=O)N(C)C(C)(C)C)C1C2(C(=O)O)C3(C(=O)N(C)C(C)(C)C)C14C(=O)N(C)C(C)(C)C)C(C)(C)C (configuration not stated): > 100 µM

[ask] // returns reported TGI for input Cc1c2c(n3c(nc4ccccc43)c1C#N)SCC2
[reply] > 10 µM

[ask] Quick one: TGI for CC[C@]1(O)C[C@@H]2CN(Cc3c([nH]c4ccccc34)[C@@](C(=O)OC)(c3cc4c(cc3OC)N(C)[C@H]3[C@@](O)(C(=O)OC)[C@H](OC(C)=O)[C@]5(CC)[C@@H]6C[C@@H]6CN6CC[C@]43[C@@H]65)C2)C1 ?
[reply] > 4.38 µM

[ask] Please report the recorded TGI for CC(=O)OC1COC(N2C(=O)C(=O)c3c(C)cc(Cl)nc32)C(OC(C)=O)C1OC(C)=O (configuration not stated) .
[reply] > 100 µM

[ask] Query: TGI; subject: O=P(O)(O)OC1C(OP(=O)(O)O)C(OP(=O)(O)O)C(OP(=O)(O)O)C(OP(=O)(O)O)C1OP(=O)(O)O (configuration not stated)
[reply] > 2000 µM

[ask] Using the record for COc1ccc(NC(=O)c2ccc(NC3=C(Cl)C(=O)N(Cc4ccccc4)C3=O)cc2)cc1 , report its TGI.
[reply] > 100 µM

---

Tested on: RXF 393 renal
Test: NCI tumour cell line growth inhibition, 48 h
The following compounds are shown together with reported TGI values.

Example compounds with recorded TGI:
NC(=O)C/C=C/CC(N)=O: > 100 µM
CCc1ccc(Cc2ccc(CC)c(NC(=O)C(=O)Cc3nc4ccccc4nc3C)c2CC)c(CC)c1NC(=O)C(=O)Cc1nc2ccccc2nc1C: > 100 µM

[ask] Entry CCCCC/C=C1/CC(CO)(COC(=O)CC(C(C)C)C(C)C)OC1=O (centres undefined) has what TGI?
[reply] 29.8 µM

[ask] Which TGI value is on record for CN(C(=O)C12C3C4(C(=O)O)C1(C(=O)N(C)C(C)(C)C)C1C2(C(=O)O)C3(C(=O)N(C)C(C)(C)C)C14C(=O)N(C)C(C)(C)C)C(C)(C)C (centres undefined) ?
[reply] > 100 µM

---

System: 786-0 renal
Experiment: NCI tumour cell line growth inhibition, 48 h
The following compounds are listed with their measured TGI values.

[ask] // lookup TGI for CC(=O)Oc1c(-c2ccccc2)[nH]c2cc([N+](=O)[O-])c(/C(Cl)=C/c3ccccc3)cc12
[reply] 25.5 µM

[ask] Dear colleague, I am looking for the recorded TGI of the following compound: Cc1nc2c(cnn2-c2ccnc3c(C(F)(F)F)cccc23)c(=O)o1
[reply] > 100 µM

[ask] Bench note: what TGI did Cc1c(C(=O)/C=C/c2ccco2)[n+](=O)c2ccccc2n1[O-] show?
[reply] > 100 µM

[ask] What value of TGI has been recorded for this entry: CN(Cc1c2ccccc2cc2ccccc12)S(=O)(=O)c1ccc(-c2c3nc(c(-c4ccc(S(=O)(=O)N(C)Cc5c6ccccc6cc6ccccc56)cc4)c4ccc([nH]4)c(-c4ccc(S(=O)(=O)N(C)Cc5c6ccccc6cc6ccccc56)cc4)c4nc(c(-c5ccc(S(=O)(=O)N(C)Cc6c7ccccc7cc7ccccc67)cc5)c5ccc2[nH]5)C=C4)C=C3)cc1
[reply] > 100 µM

[ask] Look up TGI for this compound: Brc1ccc2c(-c3nc(-c4c[nH]c5ccccc45)cs3)c[nH]c2c1
[reply] 81.1 µM

[ask] Requested field: TGI. Item: CCC12C=CCN3CC[C@]4(C(=C(C(=O)OC)[C@@H]1Nc1ncnc5c1ncn5C1OC(COC(C)=O)C(OC(C)=O)C1OC(C)=O)Nc1ccccc14)C32 (stereo partly specified)
[reply] 4.01 µM

[ask] Entry Nn1c(Cc2ccc(Cl)cc2)n[nH]c1=O has what TGI?
[reply] > 100 µM

Where do the numbers come from? From PubChem BioAssay (NCI).
